organism: Homo sapiens; assay: To identify inhibition of the IFN signalling (Jak-Stat) pathway via expression of an eGFP reporter gene under the control of an IFN-stimulated response element (ISRE) containing MxA promoter.; assay type: functional; parameters: scale not given: direction of the effect not stated beside the values; details: 30 µM
endpoint: Percent Effect (%)

| molecule | endpoint | measured |
| --- | --- | --- |
| CCCc1noc(CCC(=O)N2CCCC2c2noc(C3CC3)n2)n1 (stereo unspecified) | Percent Effect | 12 |
| CNC(=O)NC(=O)Cn1cc(-c2ccccc2)cn1 | Percent Effect | 17.1 |
| O=C(NCc1cccc(F)c1)N1CCC2(CC(=O)N(c3ccsc3)C2)C1 (stereo unspecified) | Percent Effect | -5.74 |
| O=C(c1cccnc1)N1CCc2ncnc(C3CCOC3)c2CC1 (stereo unspecified) | Percent Effect | 2.86 |
| Cn1ccnc1CN1CCCN(C(=O)c2ccc3c(c2)COC3)CC1 | Percent Effect | -1.32 |
| CC1(C(=O)N2CCOCC2)CN(Cc2ccccc2F)CCO1 (stereo unspecified) | Percent Effect | 17 |
| Cc1noc(C)c1CCC(=O)N1CCN(CCn2cncn2)CC1 | Percent Effect | -11.6 |
| Cc1ccc(N2CC3(CCN(c4nccs4)C3)C2)nn1 | Percent Effect | 0.564 |
| Cc1cc(O)c(OCC(=O)/N=c2\[nH]cc(C)s2)cn1 | Percent Effect | -4.26 |
| O=C([C@H]1CN(CCc2ccccc2)C[C@H]2OCC[C@@H]12)N1CCCO1 | Percent Effect | 4.24 |
| CCC1CN(Cc2ccccc2)CCN1Cc1nnc(C2CCC2)o1 (stereo unspecified) | Percent Effect | -3.45 |

====

Target: Tyrosyl-tRNA synthetase, putative (Trypanosoma cruzi (strain CL Brener))
Sequence (whole entry): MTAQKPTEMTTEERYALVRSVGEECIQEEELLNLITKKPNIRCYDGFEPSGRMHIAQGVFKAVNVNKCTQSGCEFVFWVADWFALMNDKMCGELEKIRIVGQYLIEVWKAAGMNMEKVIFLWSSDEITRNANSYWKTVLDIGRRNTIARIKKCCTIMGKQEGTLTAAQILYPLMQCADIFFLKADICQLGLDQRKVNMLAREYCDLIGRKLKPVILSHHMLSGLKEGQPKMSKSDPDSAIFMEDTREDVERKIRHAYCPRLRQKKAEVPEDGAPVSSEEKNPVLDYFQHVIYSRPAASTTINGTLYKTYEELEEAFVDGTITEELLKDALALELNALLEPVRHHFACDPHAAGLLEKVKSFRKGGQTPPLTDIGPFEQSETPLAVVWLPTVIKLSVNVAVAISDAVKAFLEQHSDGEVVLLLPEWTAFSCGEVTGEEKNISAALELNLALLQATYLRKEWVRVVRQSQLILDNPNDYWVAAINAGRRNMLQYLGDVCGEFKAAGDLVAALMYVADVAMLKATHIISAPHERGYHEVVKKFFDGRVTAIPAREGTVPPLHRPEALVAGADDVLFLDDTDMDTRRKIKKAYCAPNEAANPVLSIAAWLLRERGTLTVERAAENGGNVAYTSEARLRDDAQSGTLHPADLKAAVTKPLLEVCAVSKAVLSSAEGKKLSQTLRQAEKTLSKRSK
Test: Trypanosoma cruzi tyrosyl tRNA synthetase (TcYRS) SOP
Type: functional
Design: scale not given: direction of the effect not stated beside the values
Conditions: 30 µM

| compound | Percent Effect, % |
| --- | --- |
| CC(C)c1nc2c(n1C)CCN(Cc1nc(-c3cccs3)no1)C2 | 11 |
| Cn1ncc2c(=O)[nH]c(CN3CCC(Cc4ccccc4)CC3)nc21 | 25.9 |
| CCS(=O)(=O)N(C)C(=O)c1cc(C)n(-c2cccc(OC)c2)c1C | 21.5 |
| COc1ncccc1NC(=O)N1CCC(CN2CCOCC2)CC1 | 6.17 |
| CC(C)COC(C)C(=O)NCc1ccc(N(C)C)cc1 (configuration not stated) | 30.6 |
| Cc1cc(C)n(C2CN(CC(O)COc3ccc(F)cc3)C2)n1 (configuration not stated) | -4.88 |
| CCn1ccnc1CN1CCN(CC(=O)NC(=O)NC2CC2)CC1 | 19.5 |
| CN1CCCC(Cc2ccnc3ccncc23)CC1 (configuration not stated) | -1.3 |
| CN(Cc1cn2c(n1)CN(C(=O)CC1CC1)CC2)Cc1ccco1 | 14.1 |
| CC(OCC(F)(F)F)C(=O)N1CCN(S(C)(=O)=O)CC1 (configuration not stated) | 15 |
| CCN1CCC(NC(=O)CN2CCCCC2Cn2cc(C)cn2)CC1 (configuration not stated) | -22.8 |
| O=C(c1cnc(C2CC2)s1)N1CCCC(n2cccn2)C1 (configuration not stated) | 11.1 |

====

Below is a list of entries, each paired with its recorded Percent Effect value.
organism: Homo sapiens; experiment: To identify inhibition of the IFN signalling (Jak-Stat) pathway via expression of an eGFP reporter gene under the control of an IFN-stimulated response element (ISRE) containing MxA promoter.; format: functional; parameters: scale not given: direction of the effect not stated beside the values; conditions: 30 µM
endpoint: Percent Effect (%)

| compound | measured |
| --- | --- |
| CCc1cc(NCCc2ccc(O)cc2)n2nccc2n1 | 46.2 |
| Cc1nc(CN2C(=O)C[C@H]3[C@H]2CCN3C2CCOCC2)cs1 | -4.37 |
| Nc1cc2c(nn1)CCN(C(=O)CC1CCCC1)C2 | -1.92 |
| c1ccc(-n2nnnc2CN2CCCC(Cn3cncn3)C2)cc1 (stereo unspecified) | 4.63 |
| CCc1noc(C(C)N2CCC(NC(=O)c3ccc(C)s3)CC2)n1 (stereo unspecified) | 17.6 |
| CC(Cn1cccn1)NCc1nc(-c2cccc(Cl)c2)no1 (stereo unspecified) | 11.7 |

====

target: Arginase-2, mitochondrial (Homo sapiens); experiment: in vitro enzyme assay to detect the production of urea directly proportional to the activity of Arginase II; assay type: functional; parameters: scale not given: in the data most compounds retested in dose-response had high values; settings: 33.3 µM
Below is a list of entries, each paired with its recorded Percent Effect value.

| molecule | Percent Effect, % |
| --- | --- |
| CCc1c(C(=O)NCC(=O)OCC2CC2)cnn1-c1ccc(C)cc1 | 0.38 |
| CSc1nccn1-c1cccc(C(=O)NCC2CC2)c1 | -1.44 |
| COCC1CC2(CCN(C(=O)c3occc3C)CC2)CO1 (configuration not stated) | 4.52 |
| O=C(NCC(Cc1cccc(F)c1)N1CCCC1=O)c1ccccc1 (configuration not stated) | 0 |
| COc1ccc(C2Nc3ccccc3C3=NCCCN32)cc1OC (configuration not stated) | -1.63 |
| OC(CN1CCN(c2ncccn2)CC1)c1cccc(F)c1 (configuration not stated) | 16.6 |
| CCOC(=O)CCC(=O)N1CCC(Oc2ccc(C(F)(F)F)cn2)CC1 | -1.94 |
| O=C(C1=CCCC1)N1CCO[C@H]2[C@@H](OCC3CC3)CC[C@@H]21 | -51.1 |
| COc1cccn(CC(=O)N(C)Cc2ccoc2)c1=O | 0.399 |
| CC(C(=O)Nc1ccc(N2CCCC2)nc1)n1ccnc1 (configuration not stated) | -8.82 |
| CN(C)S(=O)(=O)N1CCC2(COCc3cnc(-c4ccccc4)nc32)C1 (configuration not stated) | -1.25 |
| CCc1nc(CN2CCOC(Cn3nc(C)nc3C)C2)no1 (configuration not stated) | 4.32 |

====

Below is a list of entries, each paired with its recorded Percent Effect value.
target: Arginase-2, mitochondrial (Homo sapiens) (UniProt P78540); experiment: in vitro enzyme assay to detect the production of urea directly proportional to the activity of Arginase II; type: functional; parameters: scale not given: in the data most compounds retested in dose-response had high values; conditions: 33.3 µM
Sequence (P78540 whole entry): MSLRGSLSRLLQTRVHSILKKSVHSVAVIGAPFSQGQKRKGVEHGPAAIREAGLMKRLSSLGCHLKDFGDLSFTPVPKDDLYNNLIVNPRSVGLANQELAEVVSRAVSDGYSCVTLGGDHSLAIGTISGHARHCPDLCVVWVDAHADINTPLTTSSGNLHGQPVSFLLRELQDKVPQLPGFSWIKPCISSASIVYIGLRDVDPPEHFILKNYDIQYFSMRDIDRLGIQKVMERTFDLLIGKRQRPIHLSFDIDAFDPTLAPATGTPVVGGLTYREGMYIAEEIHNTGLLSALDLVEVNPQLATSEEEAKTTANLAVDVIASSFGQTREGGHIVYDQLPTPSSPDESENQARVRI

| compound | Percent Effect / % |
| --- | --- |
| Cc1nc2cc(O)nn2c(C)c1CCC(=O)N(C)Cc1cscn1 | -4.73 |
| CCc1ncncc1C(=O)N1CCOC(c2nc(C)n[nH]2)C1 (centres undefined) | 2.8 |
| CC1c2ncc(CN3CCN(C)CC3)n2CCN1Cc1cccnc1 (centres undefined) | -51.8 |
| COc1ccc(C(=O)NS(=O)(=O)c2cncc(Br)c2)cc1OC | 0 |
| Cc1cc(N(C)C)nc(C2(C)CCCN2C(=O)c2cnccn2)n1 (centres undefined) | 2.1 |
| CC(=O)Nc1cccc(C(=O)Nc2cnc3n2CCCC3)c1 | 3.53 |
| CC(C)CN1CCC(c2nc3c([nH]2)CC(C)(C)CNC3=O)C1 (centres undefined) | 16.2 |
| Cc1cnn(CCNCc2ccc(C#N)cc2F)c1 | 0.554 |
| CCn1cc(Br)c(C(=O)NCc2cccnc2)n1 | -9.65 |
| CCN(Cc1ccc2c(c1)OCCO2)C(=O)NCc1cc[nH]n1 | 1.47 |
| CSc1cccc(CN(C)C(=O)C2CC(=O)N(CCN(C)C)C2)c1 (centres undefined) | 18.2 |
| CN(C)S(=O)(=O)c1ccc(OCCNCCn2cccn2)cc1 | 1.5 |
| CCC1(CO)CCCN(c2ncccc2C#N)C1 (centres undefined) | -3.81 |
| O=C(c1ccnnc1)N1C[C@@H]2CC[C@H](Oc3cccc(F)c3)[C@@H]2C1 | 1.16 |
| Cc1nccc(CNC(=O)NCCOc2ccc(F)c(F)c2)n1 | -1.43 |
| O=C(c1cc(COc2ccc3c(c2)OCO3)[nH]n1)N1CCCC1 | 4.39 |
| Cc1cccc(-n2cc(C(=O)N3CCCC(n4cccn4)C3)nn2)c1 (centres undefined) | -2.74 |
| CCS(=O)(=O)N1Cc2nccn2CC(Cn2nc(C)nc2C)C1 (centres undefined) | 19.6 |
| COc1ccc(CNC(=O)NCc2c(C)cc(C)[nH]c2=O)cc1 | -5.04 |
| CC(=O)c1cccc(S(=O)(=O)N2CSCC2C(=O)NCC(F)(F)F)c1 (centres undefined) | -7.1 |
| CCn1cnnc1CNC(=O)N(C)Cc1ccc2c(c1)OCCO2 | -14.8 |
| CC(=O)c1cccc(OCCCC(=O)N(C)Cc2ccccn2)c1 | 2.86 |
| CCN(CC)CCNC(=O)c1cnc(C(C)(C)C)s1 | 2.88 |
| CN(C)C(=O)CC1CC2(CCN(c3ncccn3)CC2)c2ccccc21 (centres undefined) | 2.92 |
